biological target: pre-pro-human insulin
Documented Selectivity across a set of proteins

[
  {
    "protein": "trypsin variant SEQ ID NO: 14 (protein) IVGGYTCAANSIPYQVSLNSGSHRCGGSLINSQWVVSAAHCYKSRIQVRLGEHNIDVLEGNEQFINAAKIITHPNFNGNTLDNDIMLIKLSSPATLNSHVATVSLPRSCAAAGTECLISGWGNTKSSGSSYPSLLQCLKAPVLSDSSCKSSYPGQITGNMICVGFLEGGKDACQGDSGGPVVCNGQLQGIVSSGYGCAQKNKPGVYTKVCNYVNWIQQTIAAN",
    "Selectivity": ">90%"
  },
  {
    "protein": "trypsin variant SEQ ID NO: 81 (protein) IVGGYTCAANSIPYQVSLNSGSHRCGGSLINSQWVVSAAHCYKSRIQVRLGEHNIHVLEGNEQFINAAKIITHPNFNPNTLDNDIMLIKLSSPATLNSHVATVSLPTSCAAAGTECLISGWGNTASSGSSMPSLLQCLKAPVLSDSSCKSSYPGQITGNMICVGFLEGGKDACQGDSGGPVVCNGQLQGIVSSGYGCAQKNKPGVYTKVCNYVNWIQQTIAAN",
    "Selectivity": ">90%"
  },
  {
    "protein": "trypsin variant SEQ ID NO: 43 (protein) IVGGYTCAANSIPYQVSLNSGSHRCGGSLINSQWVVSAAHCYKSRIQVRLGEHNIDVLEGNEQFINAAKIITHPNFNGNTLDNDIMLIKLSSPATLNSRVATVSLPRSCAAAGTECLISGWGNTKSSGSSYPSLLQCLKAPVLSDSSCKSSYPGQITGNMICVGFLEGGKDTCQGDSGGPVVCNGQLQGIVSSGYGCAQKNKPGVYTKVCNYVNWIQQTIAAN",
    "Selectivity": ">80%"
  }
]
